# tested system: 5-hydroxytryptamine receptor 1E (Homo sapiens, UniProt P28566)
# Sequence (P28566 whole entry): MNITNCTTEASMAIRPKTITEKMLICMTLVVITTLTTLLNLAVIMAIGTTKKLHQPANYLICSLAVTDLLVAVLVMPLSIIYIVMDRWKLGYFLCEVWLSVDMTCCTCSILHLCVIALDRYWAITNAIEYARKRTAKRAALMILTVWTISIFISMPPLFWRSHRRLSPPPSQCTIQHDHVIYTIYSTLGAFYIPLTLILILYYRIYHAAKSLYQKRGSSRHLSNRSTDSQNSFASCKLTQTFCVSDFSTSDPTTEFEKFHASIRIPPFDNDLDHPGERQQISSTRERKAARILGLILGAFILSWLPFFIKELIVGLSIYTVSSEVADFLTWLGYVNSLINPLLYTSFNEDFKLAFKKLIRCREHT
# method: Displacement of [3H]5-HT from human 5-HT1E receptor expressed in HEK cells after 90 mins by microbeta scintillation counting analysis
# Assay type: cell-based
endpoint: Ki

Worked set:
molecule: Oc1ccccc1C1=NC(Cc2c[nH]cn2)CS1 (racemic)
Ki: > 10 µM

molecule: COC(=O)[C@H](Cc1cnc[nH]1)NC(=O)[C@@H]1N=C(c2ccccc2O)S[C@@H]1C
Ki: 4.6 µM

molecule: Oc1ccccc1C1=N[C@@H]2CCC[C@@H]2S1 (racemic)
Ki: > 10 µM

molecule: C[C@@H]1SC(c2cc3ccccc3cc2O)=N[C@H]1CO (relative stereo)
Ki: > 10 µM

molecule: C[C@@H]1SC(c2cccs2)=N[C@H]1CO (relative stereo)
Ki: > 10 µM

molecule: C[C@@H]1SC(c2ccccc2)=N[C@@H]1Cc1c[nH]cn1 (relative stereo)
Ki: 4 µM

molecule: C[C@@H]1SC(c2ccccc2)=N[C@H]1Cc1c[nH]cn1 (relative stereo)
Ki: > 10 µM

molecule: C[C@@H]1SC(c2ccccc2O)=N[C@H]1Cc1c[nH]cn1 (racemic)
Ki: > 10 µM

molecule: C[C@@H]1SC(c2ccco2)=N[C@H]1CO (relative stereo)
Ki: > 10 µM

molecule: Oc1ccccc1C1=NC(Cc2c[nH]cn2)C(c2ccccc2)S1 (racemic)
Ki: 2.4 µM

Query: Ki; subject: CCCCOc1ccc(C2=N[C@@H](CO)[C@H](C)S2)cc1 (relative stereo)
> 10 µM

Query: Ki; subject: CCCCCCOc1ccc(C2=N[C@@H](CO)[C@H](C)S2)cc1 (relative stereo)
> 10 µM
